Data provenance: PubChem BioAssay (NCI)

System: LOX IMVI melanoma
Experiment: NCI-60 one-dose screen, 48 h
Settings: 10 µM unless noted
The panel holds about 83,000 compounds, 20% with a hit somewhere; the sample as a whole holds those more often. Calls of active or inactive are those of the source. How the source made its calls: active means growth percent below 10; inactive means the rest.
Outcomes: yes (1) for active, no (0) for inactive

{"structure-smiles": "Cc1ccc2nc3c(n2c1)C(=O)C(=O)c1ccccc1-3", "class-name": "yes (1)"}
{"structure-smiles": "N[C@H](CS)C(=O)O", "class-name": "no (0)"}
{"structure-smiles": "O=C(Nc1ccc(Cl)cc1)Nc1nc2ccc(OC(F)(F)F)cc2o1", "class-name": "no (0)"}
{"structure-smiles": "Nc1ccc(Oc2c(F)c(F)c(Oc3ccc(N)cc3)c(F)c2F)cc1", "class-name": "no (0)"}
{"structure-smiles": "C(#Cc1ccccc1C#Cc1ccccn1)c1ccc(OCCCCCCOc2ccc(C#Cc3ccccc3C#Cc3ccccn3)cc2)cc1", "class-name": "no (0)"}
{"structure-smiles": "COC(=O)[C@H](Cc1cn(C)cn1)NC(=O)[C@@H](NC(=O)Nc1cc(C(F)(F)F)cc(C(F)(F)F)c1)C(C)C", "class-name": "yes (1)"}

----------
We begin with a simple list: items and their reported growth.
Tested on: NCI-H226 lung
Experiment: NCI-60 one-dose screen, 48 h (100 = growth as untreated, 0 = no growth, -100 = all killed)
Settings: 10 µM unless noted
Experimental: Growth inhibition of the NCI-H226 human Non-Small Cell Lung tumor cell line is measured as a screen for anti-cancer activity. Cells are grown in 96 well plates and exposed to the test compound for 48 hours. Compounds are tested at a single concentration, which is 10^-5 M for most compounds. The reported endpoint is percent growth (GI% or GIPRCNT), where numbers from 0 - 100% represent growth inhibition, and numbers from -100% - 0 represent cell death. […]
Compounds without any hit were thinned out: in the full panel of roughly 83,000, 20% have a hit.
property: growth (%)

{"molecule": "OC(c1ccccc1)C(NCc1ccccc1)c1ccccc1 (centres undefined)", "property": "growth", "measurement-units": "%", "meas-value": 97.7}
{"molecule": "C[N+]1(C)C2CC[C@@H]1CC(OC(=O)C(O)c1ccccc1)C2 (some centres undefined)", "property": "growth", "measurement-units": "%", "meas-value": 84.7}
{"molecule": "COc1ccc(-c2cc(-c3nnc(SCC(=O)Nc4ccc(C(C)=O)cc4)n3-c3ccccc3)c3ccccc3n2)cc1OC", "property": "growth", "measurement-units": "%", "meas-value": 105}
{"molecule": "Cc1ccc2nc(SCC(=O)Nc3ccc(-c4nc5ccccc5s4)c(Cl)c3)[nH]c2c1", "property": "growth", "measurement-units": "%", "meas-value": 98.7}

----------
Tested on: M14 melanoma
Test: NCI-60 one-dose screen, 48 h
Settings: 10 µM unless noted
The panel holds about 83,000 compounds, 20% with a hit somewhere; the sample as a whole holds those more often. Activity calls are given as the source filed them. The calls were made as follows: active = growth percent below 10; inactive = the rest.
Possible outcomes: T = active, F = inactive

{"compound": "COc1ccc(-c2cnc(SCC(=O)Nc3ccc(-c4nc5ccccc5s4)cc3)n2-c2ccc(OC)cc2)cc1", "class-name": "F"}
{"compound": "COc1ccc(N2CCN(CC(=O)N3CCN(c4nnc(-c5ccc(Cl)cc5)c(-c5ccc(Cl)cc5)n4)CC3)CC2)cc1", "class-name": "F"}
{"compound": "COC(=O)Nc1ccc2ccc3c(NC(=O)OC)ccc4ccc1c2c43 (tested in a mixture with another compound)", "class-name": "F"}
{"compound": "COc1ccc2c(c1)[n+](=O)c(/C=C/C(=O)c1cc(OC)c(OC)c(OC)c1)c(C)n2[O-]", "class-name": "F"}
{"compound": "C[C@@H]1[C@H]2[C@H](C=C3[C@@H]4CC[C@H]5Cc6nc7c(nc6C[C@]5(C)[C@H]4C[C@@H](O)[C@@]32C)C[C@@H]2CC[C@H]3C4=C[C@@H]5O[C@@]6(CC[C@](C)(CO)O6)[C@@H](C)[C@@]5(O)[C@@]4(C)[C@H](O)C[C@@H]3[C@@]2(C)C7)O[C@]12CCC(C)(C)O2", "class-name": "T"}
{"compound": "CCCCCc1c(C)[nH]c(/C=C2\\N=C(c3ccc[nH]3)C=C2Oc2ccc(Cl)cc2)c1C", "class-name": "T"}
{"compound": "CC(C)N(Cc1ccccc1)c1c(S)ssc1=S", "class-name": "F"}
{"compound": "C=C(CN1CCc2c([nH]c3ccccc23)C1)c1ccc(C(=O)Nc2ccon2)cc1", "class-name": "F"}
{"compound": "Nc1nc2c(c(=O)[nH]1)C1(C(=O)Nc3ccccc31)c1c(nc(N)[nH]c1=O)N2", "class-name": "F"}
{"compound": "Cc1cc(C(=O)Nc2ccc3cc(CN4CCOCC4)ccc3n2)c(C)n1-c1ccccc1", "class-name": "F"}
{"compound": "O=C(O)c1ccc(CNS(=O)(=O)c2ccc3ccccc3c2)cc1", "class-name": "F"}
{"compound": "CCCCN=C(N)c1ccc(OCCSCCOc2ccc(C(N)=NCCCC)cc2)cc1", "class-name": "F"}
